Task for the reader: assign each of the following binders its reported koff.
Target: T1, soluble cynomolgus monkey IL-6R (cynomolgus monkey, UniProt A0A2K5WN54 60-396)
T1 construct: extracellular domain; also called scyIL-6R; soluble cynomolgus monkey IL-6 Receptor; not shown: C-terminal His- or Avi-Tag
T1 sequence: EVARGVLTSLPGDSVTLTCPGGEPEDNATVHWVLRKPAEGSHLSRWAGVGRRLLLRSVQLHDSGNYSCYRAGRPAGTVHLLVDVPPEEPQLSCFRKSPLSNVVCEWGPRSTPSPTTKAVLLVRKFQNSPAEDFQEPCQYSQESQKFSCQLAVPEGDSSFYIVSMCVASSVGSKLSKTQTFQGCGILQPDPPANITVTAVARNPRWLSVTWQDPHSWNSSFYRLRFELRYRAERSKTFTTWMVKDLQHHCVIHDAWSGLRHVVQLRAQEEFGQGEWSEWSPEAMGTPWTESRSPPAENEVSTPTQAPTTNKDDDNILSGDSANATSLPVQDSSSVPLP
Test: SPR (Biacore 2000), mAb captured on anti-human IgG Fc, analyte in solution, 25 C, 1:1 Langmuir
The answer is to be given in s⁻¹; state only the numeric part.

Query: Looking for the measured koff of NI-1201-D antibody (antibody, V domains shown) VH: QVQLVQSGAEVKKPGSSVKVSCKASGGTFSSYAISWVRQAPGQGLEWMGGIIPAFETTKYAQKFQGRVTITADESTSTAYMELSSLRSEDTAVYYCARDRDILTDYYPLGGMDVWGQGTTVTVSS VL: AIQLTQSPSSLSASVGDRVTITCRASQGISSVLAWYQQKPGKAPKLLIYDASSLESGVPSRFSGSGSGTDFTLTISSLQPEDFATYYCQQSQSYPLTFGGGTKVEIKR , can you help?
Response: 0.0002

Query: Continue with NI-1201 wild type (NI-1201-WT) antibody (antibody, V domains shown, Fully human monoclonal IgG (captured by anti-human IgG Fc in Biacore); also called 39B9 VL1) VH: QVQLVQSGAEVKKPGSSVKVSCKASGGTFSSYAISWVRQAPGQGLEWMGGIIPLFDTTKYAQQFQGRVTITADESTSTAYMELSSLRSEDTAVFYCARDRDILTDYYPMGGMDVWGQGTTVTVSS VL: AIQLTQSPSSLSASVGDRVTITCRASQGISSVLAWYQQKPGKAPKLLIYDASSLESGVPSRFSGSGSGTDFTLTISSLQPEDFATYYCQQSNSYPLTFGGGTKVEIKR
Response: 0.000215

Query: Now consider NI-1201-A antibody (antibody, V domains shown) VH: QVQLVQSGAEVKKPGSSVKVSCKASGGTFSSYAISWVRQAPGQGLEWMGGIIPLFDTTKYAQKFQGRVTITADESTSTAYMELSSLRSEDTAVYYCARDRDILTDYYPMGGMDVWGQGTTVTVSS VL: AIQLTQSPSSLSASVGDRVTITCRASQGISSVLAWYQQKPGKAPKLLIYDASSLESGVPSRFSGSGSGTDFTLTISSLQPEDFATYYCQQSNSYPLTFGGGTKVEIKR and answer again.
Response: 0.000213

Query: Also, NI-1201-C antibody (antibody, V domains shown) VH: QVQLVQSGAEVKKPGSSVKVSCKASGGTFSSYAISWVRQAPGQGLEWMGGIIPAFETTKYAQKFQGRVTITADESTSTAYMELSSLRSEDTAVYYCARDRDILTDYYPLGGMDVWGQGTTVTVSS VL: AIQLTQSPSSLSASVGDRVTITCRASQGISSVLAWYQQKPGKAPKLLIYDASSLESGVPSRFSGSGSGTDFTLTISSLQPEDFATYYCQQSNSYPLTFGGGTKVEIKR please.
Response: 0.000225
